Source of measurements: paper PMC4740292

- measurement description: Human liver microsomal stability assay
- Format: in vitro ADME
- condition parameters: both, human liver microsomes, pH 7.4
measured metric: half-life at 1 µM (min)
Number in min, nothing else.

In one line, give reported half-life at 1 µM of the entry COc1ccc([C@@]23Oc4cc(OC)cc(OC)c4[C@]2(O)[C@H](O)[C@H](C(=O)N(C)C)[C@H]3c2ccccc2)cc1 [Roc-A, rocaglamide A] . 37
